- test.details: Cell viability assay (CellTiter-Glo), HEK293
- Type: cell-based
- run.conditions: human, HEK293 cells, 3 days of incubation
measured.parameter: CC50 at 3 days

For `COc1cccc(CN(C(=O)c2cc(-c3cc(S(C)(=O)=O)ccc3C(=O)N3Cc4ccccc4C[C@H]3CN3CCOCC3)n(C)c2C)c2ccc(O)cc2)c1C` the molecule record lists CC50 at 3 days as > 25 µM

Just so you know, measured CC50 at 3 days for `COc1cccc(CN(C(=O)c2cc(-c3cc(C(N)=O)ccc3C(=O)N3Cc4ccccc4C[C@H]3CN3CCOCC3)n(C)c2C)c2ccc(O)cc2)c1C` came out at > 25 µM

// recorded CC50 at 3 days for `N#Cc1ccccc1CN(C(=O)c1cc(-c2cc(Cl)ccc2C(=O)N2Cc3ccccc3C[C@H]2CN2CCOCC2)n2c1CCCC2)c1ccc(O)cc1` : 10 to 25 µM

// field: CC50 at 3 days; key: `COc1cccc(CN(C(=O)c2cc(-c3ccc(OC(F)F)cc3C(=O)N3Cc4ccccc4C[C@H]3CN3CCOCC3)n(C)c2C)c2ccc(Cl)cc2)c1C` ; value = > 25 µM

So, `COc1cccc(CN(C(=O)c2cc(-c3cc(Cl)c(F)cc3C(=O)N3Cc4ccccc4C[C@H]3CN3CCOCC3)n(C)c2C)c2ccc(O)cc2)c1C` ? Its CC50 at 3 days was > 25 µM

CC50 at 3 days reading for `Cc1c(C(=O)N(Cc2ccccc2C#N)c2ccc(O)cc2)cc(-c2cc([N+](=O)[O-])ccc2C(=O)N2Cc3ccccc3C[C@H]2CN2CCOCC2)n1C` : > 25 µM

Entry `COc1cccc(CN(C(=O)c2cc(-c3cc(C(F)F)c(Cl)cc3C(=O)N3Cc4ccccc4C[C@H]3CN3CCOCC3)n(C)c2C)c2ccc(C#N)cc2)c1C` — recorded CC50 at 3 days = > 25 µM

Entry `Cc1c(C(=O)N(Cc2ccccc2C#N)c2ccc3[nH]ncc3c2)cc(-c2cc(Cl)ccc2C(=O)N2Cc3ccccc3C[C@H]2CN2CCOCC2)n1C` — recorded CC50 at 3 days = > 25 µM

Note to self: CC50 at 3 days recorded for `COc1ccccc1CN(C(=O)c1cc(-c2cc(F)ccc2C(=O)N2Cc3ccccc3C[C@H]2CN2CCOCC2)n(C)c1C)c1ccc(O)cc1` was > 25 µM

Quick note, CC50 at 3 days for `COc1cccc(CN(C(=O)c2cc(-c3cc(Cl)ccc3C(=O)N3Cc4ccccc4C[C@H]3CN3CCOCC3)n(C)c2C)c2ccc(O)cc2)c1C` landed at 10 to 25 µM

For this molecule ( `COc1cccc(CN(C(=O)c2cc(-c3cc(Cl)c(C#N)cc3C(=O)N3Cc4ccccc4C[C@H]3CN3CCOCC3)n(C)c2C)c2ccc(O)cc2)c1C` ), measured CC50 at 3 days is 10 to 25 µM

CC50 at 3 days reading for `COc1cccc(CN(C(=O)c2cc(-c3cc([N+](=O)[O-])ccc3C(=O)N3Cc4ccccc4C[C@H]3CN3CCOCC3)n(C)c2C)c2ccc3[nH]ncc3c2)c1C` : 10 to 25 µM

###

Field: IC50. Provide a value for each of the compounds that follow.
- experimental.target: BCL-xL (Homo sapiens (Human), UniProt Q07817)
- Sequence (Q07817 whole entry): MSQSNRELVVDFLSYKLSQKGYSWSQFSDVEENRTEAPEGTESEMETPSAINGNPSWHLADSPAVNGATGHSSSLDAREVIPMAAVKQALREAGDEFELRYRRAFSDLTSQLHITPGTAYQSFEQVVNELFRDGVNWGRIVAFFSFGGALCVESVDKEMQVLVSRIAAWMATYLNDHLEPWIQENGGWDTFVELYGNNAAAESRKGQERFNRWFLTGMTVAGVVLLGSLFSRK
- test.details: BCL-xL TR-FRET Assay (primary PPI inhibition)
- Assay type: binding
- run.conditions: 60 min incubation, read-out: BCLxL IC50
- Method: Example B. BCL-xL TR-FRET Assay (BPS Bioscience, #50223) The following assay concentrations and times were used: 10.5 ng of BCL-xL, 5 μL of 1:120 anti-His Tb-labeled donor, 5 μL of 1:120 Dye-labeled acceptor, 5 μL of 1:96 BCL-xL Peptide Ligand, 2 μL of 200× test compound, with 60 min incubation time (final concentration of DMSO 0.5%). The results of the assay were read using a plate reader with the following parameters: TR FRET, 340ex/620 and 665em; 60 usec Delay; and 500 usec integration. […]

COc1cc(-c2cc(C(=O)N(Cc3cccc(OC)c3C)c3ccc(O)cc3)c(C)n2C)c(C(=O)N2Cc3ccccc3C[C@H]2CN2CCOCC2)cc1C#N [Compound 58] has a reported IC50 of 2 to 5 µM

Per the records, this compound ( COc1cccc(CN(C(=O)c2cc(-c3cc(S(C)(=O)=O)ccc3C(=O)N3Cc4ccccc4C[C@H]3CN3CCOCC3)n(C)c2C)c2ccc(O)cc2)c1C [Compound 49] ) has IC50 equal to 2 to 5 µM

The compound listed as COc1cc(-c2cc(C(=O)N(Cc3cccc(OC)c3C)c3ccc(Cl)cc3)c(C)n2C)c(C(=O)N2Cc3ccccc3C[C@H]2CN2CCOCC2)cc1C#N [Compound 60] shows IC50 equal to 2 to 5 µM

In plain terms, COc1cccc(CN(C(=O)c2cc(-c3cc(Cl)ccc3C(=O)N3Cc4ccccc4C[C@H]3CN3CCOCC3)n(C)c2C)c2ccc3[nH]ncc3c2)c1C [Compound 70] has a documented IC50 of > 5 µM

// recorded IC50 for COc1cccc(CN(C(=O)c2cc(-c3cc(Cl)ccc3C(=O)N3Cc4ccccc4C[C@H]3CN3CCOCC3)n(C)c2C)c2ccc(C#N)cc2)c1C [Compound 33] : 2 to 5 µM

Looking up COc1cccc(CN(C(=O)c2cc(-c3cc(F)c(F)cc3C(=O)N3Cc4ccccc4C[C@H]3CN3CCOCC3)n(C)c2C)c2ccc(O)cc2)c1C [Compound 51] , I see its IC50 listed as 2 to 5 µM

Please fill in: IC50 reported for COc1cccc(CN(C(=O)c2cc(-c3cc(Cl)c(F)cc3C(=O)N3Cc4ccccc4C[C@H]3CN3CCOCC3)n(C)c2C)c2ccc(O)cc2)c1C [Compound 27] = 2 to 5 µM

Sample COc1cccc(CN(C(=O)c2cc(-c3cc(C(F)F)c(Cl)cc3C(=O)N3Cc4ccccc4C[C@H]3CN3CCOCC3)n(C)c2C)c2ccc(Cl)cc2)c1C [Compound 39] ; IC50 observed: 2 to 5 µM

Record summary for COc1cccc(CN(C(=O)c2cc(-c3cc(Cl)c(OC(F)F)cc3C(=O)N3Cc4ccccc4C[C@H]3CN3CCOCC3)n(C)c2C)c2ccc(Cl)cc2)c1C [Compound 32] : reported IC50 = 2 to 5 µM

// COc1cccc(CN(C(=O)c2cc(-c3cc(F)c(OC(F)F)cc3C(=O)N3Cc4ccccc4C[C@H]3CN3CCOCC3)n(C)c2C)c2ccc(O)cc2)c1C [Compound 16] : IC50 value = 2 to 5 µM

The reported value for COc1cccc(CN(C(=O)c2cc(-c3cc([N+](=O)[O-])ccc3C(=O)N3Cc4ccccc4C[C@H]3CN3CCOCC3)n(C)c2C)c2ccc3[nH]ncc3c2)c1C [Compound 65] in terms of IC50 is > 5 µM

Consider COc1cccc(CN(C(=O)c2cc(-c3cc([N+](=O)[O-])ccc3C(=O)N3Cc4ccccc4C[C@H]3CN3CCOCC3)n(C)c2C)c2ccc(O)cc2)c1C [Compound 61] . Its measured IC50 is > 5 µM

The compound COc1cccc(CN(C(=O)c2cc(-c3cc(NC(C)=O)ccc3C(=O)N3Cc4ccccc4C[C@H]3CN3CCOCC3)n(C)c2C)c2ccc(O)cc2)c1C [Compound 48] showed IC50 equal to 2 to 5 µM

Notebook: COc1cccc(CN(C(=O)c2cc(-c3cc(Cl)ccc3C(=O)N3Cc4ccccc4C[C@H]3CN3CCOCC3)n3c2CCCC3)c2ccc(Cl)cc2)c1C [Compound 2] , IC50 read as > 5 µM

So for COc1cccc(CN(C(=O)c2cc(-c3cc(C(N)=O)ccc3C(=O)N3Cc4ccccc4C[C@H]3CN3CCOCC3)n(C)c2C)c2ccc(O)cc2)c1C [Compound 64] , the logged IC50 turned out to be > 5 µM

Query COc1cccc(CN(C(=O)c2cc(-c3cc(Cl)c(OC(F)F)cc3C(=O)N3Cc4ccccc4C[C@H]3CN3CCOCC3)n(C)c2C)c2ccc(O)cc2)c1C [Compound 36] yields IC50 of 2 to 5 µM

In plain terms, COc1cc(-c2cc(C(=O)N(Cc3ccccc3C#N)c3ccc(Cl)cc3)c(C)n2C)c(C(=O)N2Cc3ccccc3C[C@H]2CN2CCOCC2)cc1C#N [Compound 59] has a documented IC50 of 2 to 5 µM

###

Record form. Attribute: pIC50. Fill in for each entry.
- experimental.target: BCL-2 [G101V] (Homo sapiens (Human), UniProt P10415, G101V)
- test.details: BCL-2 [G101V] TR-FRET Assay (primary PPI inhibition)
- run.conditions: 60 min incubation, read-out: BCL2[G101V] IC50
pIC50: −log10 of the molar value.

// pIC50 value for Cc1c(C(=O)N(Cc2ccccc2C#N)c2ccc3[nH]ncc3c2)cc(-c2cc(Cl)ccc2C(=O)N2Cc3ccccc3C[C@H]2CN2CCOCC2)n1C [Compound 68] : < 6.00

Query COc1cccc(CN(C(=O)c2cc(-c3cc(Cl)c(C#N)cc3C(=O)N3Cc4ccccc4C[C@H]3CN3CCOCC3)n(C)c2C)c2ccc(O)cc2)c1C [Compound 9] yields pIC50 of 6.00 to 7.00

For reference, reported pIC50 for COc1cccc(CN(C(=O)c2cc(-c3cc(F)ccc3C(=O)N3Cc4ccccc4C[C@H]3CN3CCOCC3)n(C)c2C)c2ccc(O)cc2)c1C [Compound 52] stands at ≥ 7.00

The compound COc1cccc(CN(C(=O)c2cc(-c3cc([N+](=O)[O-])ccc3C(=O)N3Cc4ccccc4C[C@H]3CN3CCOCC3)n(C)c2C)c2ccc3[nH]ncc3c2)c1C [Compound 65] showed pIC50 equal to < 6.00

Given item COc1cccc(CN(C(=O)c2cc(-c3cc(Cl)ccc3C(=O)N3Cc4ccccc4C[C@H]3CN3CCOCC3)n3c2CCCC3)c2ccc(Cl)cc2)c1C [Compound 2] , the value recorded as its pIC50 is < 6.00

For reference, reported pIC50 for N#Cc1ccccc1CN(C(=O)c1cc(-c2cc(Cl)ccc2C(=O)N2Cc3ccccc3C[C@H]2CN2CCOCC2)n2c1CCCC2)c1ccc(Cl)cc1 [Compound 1] stands at < 6.00
